target: UniProtKB Q16769; assay: Fluorometric assay of glutaminyl cyclase (QC) inhibition, H-Gln-βNA or H-Gln-AMC substrate; format: biochemical; details: read-out: IC50
Sequence (Q16769 29-361): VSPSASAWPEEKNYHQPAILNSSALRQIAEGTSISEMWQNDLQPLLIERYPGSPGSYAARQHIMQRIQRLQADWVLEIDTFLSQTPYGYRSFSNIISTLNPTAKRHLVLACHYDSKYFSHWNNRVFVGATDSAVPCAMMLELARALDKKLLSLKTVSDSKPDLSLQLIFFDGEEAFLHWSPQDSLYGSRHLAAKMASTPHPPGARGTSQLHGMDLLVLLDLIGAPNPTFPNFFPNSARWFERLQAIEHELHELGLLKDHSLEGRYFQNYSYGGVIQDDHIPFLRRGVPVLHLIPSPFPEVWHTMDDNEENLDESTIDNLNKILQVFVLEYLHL
pIC50: −log10 of the molar value.
Measured Parameter: pIC50

[a] S=C1N/C(=N/Cn2nnc3ccccc32)C(c2ccc3c(c2)OCO3)N1c1ccc2[nH]cnc2c1 (stereo not shown) [Compound 176]
[b] CCc1ccccc1C1/C(=N/C2CCCc3ccccc32)NC(=S)N1c1ccc2[nH]cnc2c1 (stereo not shown) [Compound 136]
Task item: Smaller pIC50 value? Options are a and b Respond using the label that marks the chosen record.
Reply: b

[A] O=C(C/N=C1/NC(=S)N(c2ccc3[nH]cnc3c2)C1c1ccnc2ccccc12)N1CCC(O)CC1 (stereo not shown) [Compound 270]
[B] O=C1N/C(=N\C2CCCC2)C(c2ccc(Cl)cc2)N1c1ccc2[nH]cnc2c1 (stereo not shown) [Compound 211]
Task item: Of the two listed items, A and B , which carries the larger pIC50 figure? Indicate your choice by writing its label.
Reply: B
(B: 8.40, A: 5.89)

[I] S=C1N/C(=N/CCCc2ccccc2)C(c2ccc3[nH]ccc3c2)N1c1ccc2[nH]cnc2c1 (stereo not shown) [Compound 284]
[II] O=C1N/C(=N\[C@H]2CCc3ccccc32)C(c2ccc(Br)cc2)N1c1ccc2[nH]cnc2c1 (stereo partly shown) [Compound 333]
[III] O=C1N/C(=N\c2ccc3c(c2)OCCO3)C(c2cc(F)cc(F)c2)N1CCCn1ccnc1 (stereo not shown) [Compound 32]
[IV] S=C1NC(=NCCc2cccs2)C(c2cc3c(cc2Br)OCO3)N1c1ccc2nc[nH]c2c1 (stereo not shown) [Compound 137]
Task item: Hey, quick one: sort these by pIC50, low to high? # format: label list in the order the request specifies
Reply: III, IV, I, II

[A] O=C1NC(=NCCC(c2ccccc2)c2ccccc2)C(c2ccc(Cl)c(F)c2)N1CCCn1ccnc1 (stereo not shown) [Compound 109]
[B] O=C(C/N=C1\NC(=S)N(c2ccc3[nH]cnc3c2)C1c1cc2ccccc2s1)N1CCSCC1 (stereo not shown) [Compound 207]
Task item: Recorded pIC50 values differ for A and B ; which one is higher? Provide the label of your selected option as the answer.
Reply: B

[a] O=C1N/C(=N/Cc2ccccc2)C(c2ccc(O)cc2)N1CCCn1ccnc1 (stereo not shown) [Compound 99]
[b] Cc1ccc2occ(C3/C(=N/CCCN4CCOCC4)NC(=O)N3c3ccc4[nH]cnc4c3)c(=O)c2c1 (stereo not shown) [Compound 263]
Task item: Sorting by pIC50 in descending order, would a or b appear first? Returns: label corresponding to the selected item.
Reply: b

[A] O=C1N/C(=N\c2ccc(Oc3ccccc3)cc2)C(c2ccc(Cl)c(F)c2)N1CCCn1ccnc1 (stereo not shown) [Compound 101]
[B] O=C1N/C(=N/C2CC2)C(c2ccc(Cl)c(F)c2)N1c1ccc2[nH]cnc2c1 (stereo not shown) [Compound 117]
Task item: // pick larger pIC50 from pair: A vs B Your answer should be the label of the entry you select.
Reply: B
(B: 5.89, A: 5.12)

[A] FC(F)(F)c1ccccc1/N=C1\NC(=S)N(c2ccc3[nH]cnc3c2)C1C1=CCCCC1 (stereo not shown) [Compound 149]
[B] O=C1N/C(=N/Cc2cccnc2)C(c2cc(F)cc(F)c2)N1c1ccc2[nH]cnc2c1 (stereo not shown) [Compound 227]
Task item: Between A and B , which one shows the larger pIC50 value? Please reply using the label of the selected record.
Reply: B
(B: 5.89, A: 5.17)

[a] O=C1CCCN1CC/N=C1\NC(=S)N(c2ccc3[nH]cnc3c2)C1c1cccc(Br)c1 (stereo not shown) [Compound 175]
[b] O=c1c(C2/C(=N/c3cc(Cl)ccc3Cl)NC(=S)N2c2ccc3[nH]cnc3c2)coc2ccccc12 (stereo not shown) [Compound 192]
Task item: Higher pIC50: a or b ? // return label of chosen record
Reply: b
(b: 5.51, a: 5.31)
